molecular target: And‐1 (Homo sapiens, UniProt O75717); construct: expressed in transfected cells; test: And‐1 luciferase reporter assay (qHTS of LOPAC); format: cell-based; settings: reduction of luciferase activity, qHTS; column 2; read-out: IC50 (uM) 2
Sequence (O75717 whole entry): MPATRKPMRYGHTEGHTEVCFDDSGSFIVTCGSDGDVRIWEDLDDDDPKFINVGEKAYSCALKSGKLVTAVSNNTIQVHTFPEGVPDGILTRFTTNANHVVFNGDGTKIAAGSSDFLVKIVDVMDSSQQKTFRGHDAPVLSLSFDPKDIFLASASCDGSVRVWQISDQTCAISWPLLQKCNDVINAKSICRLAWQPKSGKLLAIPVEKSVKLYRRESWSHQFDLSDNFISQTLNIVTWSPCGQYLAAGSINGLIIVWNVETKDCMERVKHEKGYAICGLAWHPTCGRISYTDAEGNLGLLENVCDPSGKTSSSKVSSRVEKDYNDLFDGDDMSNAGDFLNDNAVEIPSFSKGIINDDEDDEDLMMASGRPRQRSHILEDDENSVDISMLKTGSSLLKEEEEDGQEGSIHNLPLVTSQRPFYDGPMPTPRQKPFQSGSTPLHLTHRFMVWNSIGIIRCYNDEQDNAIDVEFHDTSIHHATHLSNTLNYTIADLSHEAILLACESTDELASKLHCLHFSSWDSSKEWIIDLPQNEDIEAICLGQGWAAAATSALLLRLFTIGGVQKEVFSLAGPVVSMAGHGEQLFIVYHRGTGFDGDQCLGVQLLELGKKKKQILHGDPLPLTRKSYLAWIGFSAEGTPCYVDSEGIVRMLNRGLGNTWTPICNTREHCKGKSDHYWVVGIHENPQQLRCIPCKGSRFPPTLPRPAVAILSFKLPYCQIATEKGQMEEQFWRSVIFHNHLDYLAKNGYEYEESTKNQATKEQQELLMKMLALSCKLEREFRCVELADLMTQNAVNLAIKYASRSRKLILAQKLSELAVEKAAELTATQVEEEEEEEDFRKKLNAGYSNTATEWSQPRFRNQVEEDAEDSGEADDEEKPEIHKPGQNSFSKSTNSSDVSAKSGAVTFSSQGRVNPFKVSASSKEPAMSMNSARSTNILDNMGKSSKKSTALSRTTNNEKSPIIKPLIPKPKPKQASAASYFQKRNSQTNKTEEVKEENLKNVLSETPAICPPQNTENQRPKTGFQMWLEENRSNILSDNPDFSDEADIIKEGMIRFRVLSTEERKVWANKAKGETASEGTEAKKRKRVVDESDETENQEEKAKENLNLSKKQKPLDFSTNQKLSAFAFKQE
observable: DC50 (µM)

| molecule | unitName | assayValue |
| --- | --- | --- |
| CNc1ccc2oc(C[C@H]3O[C@@]4(CC[C@H]3C)O[C@H]([C@H](C)C(=O)c3ccc[nH]3)[C@H](C)C[C@H]4C)nc2c1C(=O)O | µM | 10.5 |
| COCCOC(=O)C1=C(C)NC(C)=C(C(=O)OC/C=C/c2ccccc2)C1c1cccc([N+](=O)[O-])c1 (stereo not shown) | µM | 19.3 |
| C/C=C(/C)C(=O)O[C@H]1C(C)=C2[C@H]([C@@H]1OC(=O)CCCCCCC)[C@@](C)(OC(C)=O)C[C@H](OC(=O)CCC)[C@@]1(O)[C@H]2OC(=O)[C@@]1(C)O | µM | 0.63 |
| Oc1ccc(/C=C/c2cc(O)cc(O)c2)cc1 [Resveratrol, 3,5,4′‐trihydroxy‐trans‐stilbene] | µM | 22.9 |
